Experiment: Quantitative highthroughput screen to assess conditional lethalithy of NOMO1 cells grown in RPMI1640 with untreated serum (RPMI+s) (AID 1963876); further: nearly all actives have a fitted effect of over 35% in size; further: potency means the concentration at half of the fitted maximal effect;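 on viability: 100% = DMSO wells and 0% = empty wells without cells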
Settings: NOMO1 AML cells in RPMI+serum, CellTiter-Glo viability, 48 h; series mostly up to 45.8 µM
Description: Assay Provider: Jason Cantor Ph.D. Department of Biochemistry University of Wisconsin-Madison, Madison, WI, USA Chemical screening studies have identified drug sensitivities across hundreds of cancer cell lines but most putative therapeutics fail to translate. […] Sets of conditional anticancer compounds spanned phases of clinical development and included non-oncology drugs were assessed. […] 6; Detection; Luminescence, Viewlux PerkinElmer. […]
Results filed as inconclusive are left out. Active and inactive are the calls of the source. The call rests on the fitted dose curve; in most records, active means well fitted cell-killing curve with a large enough effect; inconclusive means small, poorly fitted or top-dose-only effect; inactive means flat fitted curve, though single readings scatter.
parameter: Potency

Solved entries:
CCc1nc(N)nc(N)c1-c1ccc(Cl)cc1 | inactive
NC1=N[C@@]2(c3cc(NC(=O)c4ccc(F)cn4)ccc3F)COC[C@@H]2CS1 | 372 nM (active)
Clc1ccc(CCC(Cn2ccnc2)Sc2c(Cl)cccc2Cl)cc1 (stereo not given) | inactive
O=[N+]([O-])c1cn2c(n1)OC[C@@H](OCc1ccc(OC(F)(F)F)cc1)C2 | inactive
COC[C@H](NC(=O)c1cnc(C)s1)C(=O)N[C@@H](COC)C(=O)N[C@@H](Cc1ccccc1)C(=O)[C@@]1(C)CO1 | 469 nM (active)

Respectfully, I request Potency for each entry included below.
1. COc1ccc2cc([S+]([O-])Cc3ncc(C)c(OC)c3C)nc2c1
2. OCc1ccc(-c2nn(Cc3ccccc3)c3ccccc23)o1
3. CC(C)c1ccc2c(c1)c(SC(C)(C)C)c(CC(C)(C)C(=O)O)n2Cc1ccc(Cl)cc1
4. COc1ccc(-c2nc3ccc(C4=NNC(=O)CC4C)cc3[nH]2)cc1 (stereo not given)
5. Cc1c(Cn2c(C)nc3c(C(=O)O)cc(N4CCOCC4)cc32)cccc1C(F)(F)F

1: inactive; 2: 13200 nM (active); 3: inactive; 4: inactive; 5: inactive

###

Assay: Quantitative highthroughput screen to assess conditional lethalithy of NOMO1 cells grown in Human Plasma-Like Medium with dialyzed fetal bovine serum (HPLM+ds) (AID 1963878); further: nearly all actives have a fitted effect of over 35% in size;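 on viability: 100% = DMSO wells and 0% = empty wells on each plate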
Settings: NOMO1 AML cells in HPLM+ds, CellTiter-Glo viability, 48 h; series mostly up to 45.8 µM
Protocol: Assay Provider: Jason Cantor Ph.D. Department of Biochemistry University of Wisconsin-Madison, Madison, WI, USA Chemical screening studies have identified drug sensitivities across hundreds of cancer cell lines but most putative therapeutics fail to translate. […] Sets of conditional anticancer compounds spanned phases of clinical development and included non-oncology drugs were assessed. […] 6; Detection; Luminescence, Viewlux PerkinElmer. […]
Records with an inconclusive call do not appear. Calls of active or inactive are those of the source. Calls follow the shape of the dose curve; as a rule, active = well fitted cell-killing curve with a large enough effect; inconclusive = small, poorly fitted or top-dose-only effect, or effect the other way; inactive = no such curve, though single readings can be large or run the other way.
Result category, one only: active, inactive

The following compounds have reported results that may help.
COc1ccc([C@@H]2CNC(=O)C2)cc1OC1CCCC1 | inactive
COc1ccc2c(c1)c(CC(=O)O)c(C)n2C(=O)c1ccc(Cl)cc1 | inactive
CC(C)n1cnc2c(NCCCCCCNC(=O)OC(C)(C)C)nc(NCCO)nc21 | inactive
Cc1nnc(C(=O)NC(C)(C)c2nc(C(=O)NCc3ccc(F)cc3)c(O)c(=O)n2C)o1 | inactive
Cc1ccccc1C(C(=O)NC1CCCCC1)N(C(=O)CNc1ccc(C#N)cc1)c1cccc(F)c1 (stereo not given) | inactive
CN(C)CC(=O)N1CCC(c2ccc(NC(=O)c3ncc(C#N)[nH]3)c(C3=CCCCC3)c2)CC1 | inactive
C=CC(=O)Nc1cc2c(Nc3ccc(F)c(Cl)c3)ncnc2cc1OCCCN1CCOCC1 | active
Nc1cccc2c1CN(C1CCC(=O)NC1=O)C2=O (stereo not given) | inactive

Test call, this compound: Clc1ccc(C(c2ccccc2Cl)C(Cl)Cl)cc1 (stereo not given) inactive

Test call, this compound: "CC(C)(C)C(=O)OCOP(=O)(COCCn1cnc2c(N)ncnc21)OCOC(=O)C(C)(C)C" active

###

Exercise: for every item that follows, state its recorded activity (max response).
Assay: Cellular viability qHTS for adrenocortical cancer (ACC) cell line SW-13 (AID 1963989);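 further: cells grown in serum-free medium with ITS supplement; on the % scale 0 is the no-effect control and ±100 the full control effect; nearly all actives have a fitted effect of over 65% in size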
Settings: SW-13 ACC cells viability, CellTiter-Glo, 48 h; active compounds read low
Source text: PI: Naris Nilubol, MD Surgical Oncology Program, National Cancer Institute (NCI) National Institute of Health (NIH), Bethesda, Maryland Adrenocortical cancer (ACC) is a rare malignancy with poor survival outcomes and few treatment options. Currently, mitotane is the only FDA-approved therapy for ACC. […] Through a quantitative high-throughput drug screen (qHTS), we identified auranofin (AF), a thioredoxin reductase (TXNRD) inhibitor, as a promising candidate drug. […]
Results filed as inconclusive are left out.
Numbers only, in %.

CC(C)(S)[C@@H](N)C(=O)O | 0.215
CC1CC(OC(=O)c2ccccc2O)CC(C)(C)C1 (stereo unspecified) | 10.4
COC(=O)c1ccccc1C(=O)c1ccc(OCCN2CCCCC2)cc1 | -0.425
CCN(CC)C(=O)/C(C#N)=C/c1cc(O)c(O)c([N+](=O)[O-])c1 | 3.46
CN1C(=O)N[C@@H](Cc2c[nH]c3c(Cl)cccc23)C1=O | -3.59

Specify activity (max response) for CC(CSC(=O)c1ccccc1)C(=O)N1C[C@@H](Sc2ccccc2)C[C@H]1C(=O)O (stereo partly specified) and stop. -2.01

###

Assay: Cellular viability qHTS for adrenocortical cancer (ACC) cell line SW-13 (AID 1963989);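 further: cells grown in serum-free medium with ITS supplement; on the % scale 0 is the no-effect control and ±100 the full control effect; nearly all actives have a fitted effect of over 65% in size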
Conditions: SW-13 ACC cells viability, CellTiter-Glo, 48 h; active compounds read low
Records with an inconclusive call do not appear.
parameter: activity (max response) (%)
Answers are plain numbers, in %.

Solved entries:
CC1(C)Cc2c(sc(NC(=S)NC(=O)c3ccccc3)c2C(=O)O)CO1 | 11
COc1ccc2c(c1)CC[C@@H]1[C@@H]2CC[C@]2(C)[C@@H](NCCCCCCN3C(=O)C=CC3=O)CC[C@@H]12 | -14.7
CCN(CC)C(=O)Cc1csc(NS(=O)(=O)c2cccc(Cl)c2C)n1 | -19.2

Respectfully, I request activity (max response) for each entry included below.
1. CCn1cc(C(=O)O)c(=O)c2cnc(N3CCNCC3)nc21
2. CC(=O)N[C@@H](CCC(=O)O)C(=O)O
3. NS(=O)(=O)c1ccc(Cl)c(S(N)(=O)=O)c1

[3.41, 10.8, -3.32]

###

Experiment: Quantitative highthroughput screen to assess conditional lethalithy of P12 Ichikawa cells grown in RPMI1640 with untreated serum (RPMI+s) (AID 1963881); further: nearly all actives have a fitted effect of over 35% in size;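 on viability: 100% = DMSO wells and 0% = empty wells without cells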
Details: ATP luminescence, 48 h; viability; series mostly up to 45.8 µM
Records with an inconclusive call do not appear. Activity calls are given as the source filed them. Calls come from the whole dose curve; as a rule, active = well fitted cell-killing curve with a large enough effect; inconclusive = small, poorly fitted or top-dose-only effect; inactive = flat fitted curve, though single readings scatter.
Result category, one only: active, inactive

O=C1CCCC(=O)C1C(=O)c1ccc(C(F)(F)F)cc1[N+](=O)[O-] | inactive
CN(C)CC=CC(=O)Nc1cc2c(Nc3ccc(F)c(Cl)c3)ncnc2cc1O[C@H]1CCOC1 | active
CC(C)OC(=O)C(C(=O)OC(C)C)=C1SC=CS1 | inactive

Test call, this compound: "COc1ncnc(NS(=O)(=O)c2ccc(N)cc2)c1OC" active

Test call, this compound: "C=C1C(=O)O[C@H]2[C@@H]1CCC(C)=CCC[C@@]1(C)O[C@@H]21" active

Test call, this compound: CC(C(=O)O)c1cccc(C(=O)c2ccccc2)c1 (stereo not given) inactive

Test call, this compound: "C=CC(=O)Nc1cc2c(Nc3ccc(F)c(Cl)c3)ncnc2cc1OCCCN1CCOCC1" active

Test call, this compound: "C#C[C@]1(O)CC[C@H]2[C@H]3CCc4cc(OC)ccc4[C@H]3CC[C@@]21C" inactive

Test call, this compound: "Cc1nc(Nc2n[nH]c3c2CN(C(=O)N[C@H](CN(C)C)c2ccccc2)C3(C)C)c2sccc2n1" active

Test call, this compound: "O=C(O)[C@H](CC(=O)N1C[C@@H]2CCCC[C@H]2C1)Cc1ccccc1" inactive

###

Assay: Viability qHTS for spleen associated tyrosine kinase inhibitor (SYKi) drug resistant MV4-11 cells (AID 1963824); further: nearly all actives have a fitted effect of over 35% in size
Details: SYKi-resistant MV4-11 viability, CellTiter-Glo, 72 h; series mostly up to 45 µM
Inconclusive results are not listed. Calls of active or inactive are those of the source. The call rests on the fitted dose curve; in most records, active means well fitted cell-killing curve with a large enough effect; inconclusive means small, poorly fitted or top-dose-only effect, or effect the other way; inactive means no such curve, though single readings can be large or run the other way.
Result category, one only: label 1 for active, label 0 for inactive

N#Cc1c(N(CC(=O)O)CC(=O)O)sc(C(=O)O)c1CC(=O)O | label 0
CC(C)C1NC(=O)CNC(=O)C2CCCN2C(=O)C(Cc2c[nH]c3ccccc23)NC(=O)CNC(=O)C(C(O)c2ccc(O)cc2)NC(=O)CNC1=O (stereo not drawn) | label 0
Cn1cc[nH]c1=S | label 0
Cc1ncc([N+](=O)[O-])n1C[C@H](O)CN1CCOCC1 | label 0
CC1=C2CC(=O)C(C)CC/C=C(\C)CC2OC1=O (stereo not drawn) | label 0

Query compound follows.
Test call, this compound: CC1CC(O)C2(C)C(C(=O)O)=CCCC2C1(C)CCc1ccoc1 (stereo not drawn) label 0

Reference for the values: PubChem BioAssay (NCATS)
